- Tested on: CCRF-CEM leukemia
- assayExplanation: NCI-60 one-dose screen, 48 h (100 = growth as untreated, 0 = no growth, -100 = all killed)
- experimentalSetup: 10 µM unless noted
About 83,000 compounds went through this panel and 20% of them were active in at least one assay; those are over-represented in the sample as a whole.
measurementLabel: growth (%)

molecule: Cc1ccc(/C=C2\CN(C(=O)OC(C)(C)C)C/C(=C\c3ccc(C)cc3)C2=O)cc1
measurementLabel: growth
endpointValue: 3.02

molecule: COc1ccc(C(=S)N2CCN(c3ccccc3Cl)CC2)cc1OC
measurementLabel: growth
endpointValue: 123

molecule: COc1ccc(-c2ccc3cnc4sc(-c5ccc(OC)cc5)nc4c3n2)cc1
measurementLabel: growth
endpointValue: 102

molecule: CCN(CC)CCOc1ccc(-c2c(-c3ccccc3)c(=O)oc3ccccc23)cc1
measurementLabel: growth
endpointValue: 95.7

molecule: C#CCn1cnc2c(Nc3cccc(NC(=O)C=C)c3)ncnc21
measurementLabel: growth
endpointValue: 81.6

molecule: O=C1N[C@@H]2NC(=[N+]3CCOCC3)N[C@@H]2N1
measurementLabel: growth
endpointValue: 108

molecule: CC(C)NC1CCC(Nc2ccnc3cc(Cl)ccc23)CC1 (configuration not stated)
measurementLabel: growth
endpointValue: -32.1

molecule: CCOP(=O)(OCC)c1nc(-c2ccccc2)oc1NCc1cccnc1
measurementLabel: growth
endpointValue: 108

molecule: Cc1cnc(C(=O)NNc2nc3sc4c(c3c(=O)n2C)C(C)CCC4)cn1 (configuration not stated)
measurementLabel: growth
endpointValue: 2.41

molecule: O=C(Nc1cccnc1Nc1ccc(F)cc1)c1cn(Cc2cccc(Oc3ccccc3)c2)nn1
measurementLabel: growth
endpointValue: 63.2

molecule: CN(C)c1ccc(Nc2cc(-c3cccc(OC(F)(F)F)c3)nc3ccc(N4CCCC4)cc23)cc1
measurementLabel: growth
endpointValue: 3.82

molecule: O=C(Cn1c2c(c3ccccc31)CCCC2)Nc1ccc(-c2nc3ccccc3s2)cc1
measurementLabel: growth
endpointValue: 93.2

====

- Test system: PC-3 prostate
- assayExplanation: NCI-60 one-dose screen, 48 h
- experimentalSetup: 10 µM unless noted
This is part of a sample that, as a whole, favours compounds with a hit. Of some 83,000 tested, about 20% had one in any assay. Calls of active or inactive are those of the source. How the source made its calls: active means growth percent below 10; inactive means the rest.
Outcome codes: active, inactive

molecule: Cc1cc(N)c2cc(NC(=O)/C=C\c3ccccc3Cl)ccc2n1
assignedLabel: active

molecule: COC(=O)/C(CCC=C(C)C)=C1\[C@@H](OC(C)=O)C[C@@]2(C)[C@H]1C[C@@H](O)[C@H]1[C@@]3(C)CC[C@H](NCCN)[C@@H](C)[C@@H]3CC[C@@]12C
assignedLabel: inactive

molecule: O=[N+]([O-])c1ccc(S(=O)(=O)N2CCN(C3=NS(=O)(=O)c4ccccc4N3c3ccccc3)CC2)cc1
assignedLabel: inactive

molecule: CCCCCC(=O)OCC(=O)O[C@@H]1C[C@]2(C(C)C)O[C@@]1(C)[C@@H]1CC[C@@H](C)[C@H]1[C@@H]2OC(=O)/C=C/c1ccccc1
assignedLabel: inactive

molecule: Cc1cnc(C(=O)NNc2nc3sc4c(c3c(=O)n2C)C(C)CCC4)cn1 (stereo not drawn)
assignedLabel: active

molecule: CCN1CCN(c2cc(C(=O)Nc3nc(-c4cc(OC)c(OC)c(OC)c4)cs3)cc(C(F)(F)F)c2)CC1
assignedLabel: inactive

molecule: Cc1nnc(NC(=O)c2nc(S(=O)(=O)Cc3ccc(F)cc3)ncc2Cl)s1
assignedLabel: inactive

molecule: CSc1nc2sc3c(c2c(=O)n1-c1ccc([N+](=O)[O-])cc1)CCCCC3
assignedLabel: inactive

molecule: O=C(c1ccccc1)C1C(=O)N2C(=S)N(c3ccccc3)C(=O)C2C1c1ccc(Cl)cc1 (stereo not drawn)
assignedLabel: inactive

molecule: O=C(NCCCN1CCOCC1)c1cccc(N2C(=O)/C(=C/c3ccc(F)cc3)SC2=S)c1
assignedLabel: inactive

molecule: CCN(C(=O)N1CCN(c2cc3c(cc2F)c(=O)c(C(=O)O)cn3C2CC2)CC1)c1nc(-c2ccc(Cl)cc2)cs1
assignedLabel: inactive

molecule: CCOc1ccc(NC(=O)CSc2oc(-c3ccccc3)nc2S(=O)(=O)c2ccc(F)cc2)cc1
assignedLabel: inactive

molecule: COc1cc(-c2csc(NC(=O)c3cc(-n4cnc(C)c4)cc(C(F)(F)F)c3)n2)cc(OC)c1OC
assignedLabel: inactive

====

- Tested on: OVCAR-4 ovarian
- assayExplanation: NCI-60 one-dose screen, 48 h (100 = growth as untreated, 0 = no growth, -100 = all killed)
- experimentalSetup: 10 µM unless noted
The panel holds about 83,000 compounds, 20% with a hit somewhere; the sample as a whole holds those more often. Calls of active or inactive are those of the source. The calls were made as follows: active = growth percent below 10; inactive = the rest.
# maps each entry to its growth
measurementLabel: growth

molecule: Cn1c(=O)c2c(nc(NC3=NS(=O)(=O)c4ccccc43)n2CC(=O)N2CCc3ccccc32)n(C)c1=O
experimentalSystem: OVCAR-4 ovarian
endpointValue: 107% (inactive)

molecule: Cc1nc2sc(C(=O)Nc3ccccc3)c(N)c2cc1C(=O)c1ccccc1
experimentalSystem: OVCAR-4 ovarian
endpointValue: 63% (inactive)

molecule: Nc1c(C(=O)Nc2ccncc2)sc2nc3c(cc12)CCCCCC3
experimentalSystem: OVCAR-4 ovarian
endpointValue: 86.9% (inactive)

molecule: Fc1cc2c(cc1Cl)N(c1ncnc3ccc(-c4cnc5[nH]ncc5c4)cc13)CC2
experimentalSystem: OVCAR-4 ovarian
endpointValue: 66.4% (inactive)

molecule: O=C1/C(=C/c2ccc(F)cc2)COc2ccc(O)cc21
experimentalSystem: OVCAR-4 ovarian
endpointValue: 93.4% (inactive)

molecule: O=C(CCCCCCN1CC(=O)N2[C@H](c3cc(Br)cs3)c3[nH]c4ccccc4c3C[C@H]2C1=O)NO
experimentalSystem: OVCAR-4 ovarian
endpointValue: 63% (inactive)

molecule: Cc1nnc(-n2c(O)cc(=O)n(-c3ccccc3)c2=S)nc1/C=C/c1ccc(N(C)C)cc1
experimentalSystem: OVCAR-4 ovarian
endpointValue: 50.3% (inactive)

molecule: CCOC(=O)c1[nH]c(=O)c2c(C)nc(-c3ccccc3)cc2c1O
experimentalSystem: OVCAR-4 ovarian
endpointValue: 117% (inactive)

molecule: C[C@@H]1CCC[C@H]1CC(N)C(=O)O (stereo partly drawn)
experimentalSystem: OVCAR-4 ovarian
endpointValue: 105% (inactive)

molecule: CNC(=O)c1c(NC(=O)c2ccc(C(F)(F)F)cc2)sc2c1CCC(=O)C2
experimentalSystem: OVCAR-4 ovarian
endpointValue: -81.5% (active)

molecule: O=C(/C=C/c1ccccc1)c1cccc(OCCCOc2cccc(C(=O)/C=C/c3ccccc3)c2)c1
experimentalSystem: OVCAR-4 ovarian
endpointValue: 92.5% (inactive)

molecule: Oc1ccc(CCn2c(O)c(/C=C3\CN=c4ccccc4=N3)sc2=S)cc1
experimentalSystem: OVCAR-4 ovarian
endpointValue: 80.5% (inactive)

molecule: COc1cc2oc(-c3cccc(NC(=O)c4cccc(Br)c4)c3)cc(=O)c2c(OC)c1OC
experimentalSystem: OVCAR-4 ovarian
endpointValue: 58.7% (inactive)

molecule: Cc1cccc(N2CCN(CC(O)COc3ccc(Cl)cc3)CC2)c1 (stereo not drawn)
experimentalSystem: OVCAR-4 ovarian
endpointValue: 115% (inactive)

molecule: O=C(CSc1nc(-c2ccccc2)[nH]c1S(=O)(=O)c1ccccc1)NC1CC1
experimentalSystem: OVCAR-4 ovarian
endpointValue: 95% (inactive)

molecule: Cc1ccc(/C=C2\CN(C(=O)OC(C)(C)C)C/C(=C\c3ccc(C)cc3)C2=O)cc1
experimentalSystem: OVCAR-4 ovarian
endpointValue: 65.4% (inactive)

molecule: Fc1cccc(CNc2c3ccccc3nc3ccccc23)c1F
experimentalSystem: OVCAR-4 ovarian
endpointValue: 49.9% (inactive)

molecule: CC(=O)c1cc(O)c2ccccc2c1O
experimentalSystem: OVCAR-4 ovarian
endpointValue: 93.4% (inactive)

molecule: CN(CCOc1ccc(C#N)cc1)CCOc1ccc(C#N)cc1
experimentalSystem: OVCAR-4 ovarian
endpointValue: 75% (inactive)

molecule: COc1ccc(/C=N/NC(=O)CCN2c3ccccc3Sc3ccccc32)cc1
experimentalSystem: OVCAR-4 ovarian
endpointValue: 89.6% (inactive)

molecule: N#CC1=C(N)Oc2c(sc3c(F)cccc23)C1c1ccc(F)cc1 (stereo not drawn)
experimentalSystem: OVCAR-4 ovarian
endpointValue: 60.8% (inactive)

molecule: CCCCC[C@@H]1Cc2cc(O)c(C(=O)O)c3c2[C@H](C[C@]2(OC[C@@H](CC(=O)[C@@](C)(CC)C(=O)OC)[C@@H]2C)O3)O1
experimentalSystem: OVCAR-4 ovarian
endpointValue: 104% (inactive)

molecule: O=C(CI)NC1Oc2ccccc2-c2oc(=O)c(-c3ccccc3)cc21 (stereo not drawn)
experimentalSystem: OVCAR-4 ovarian
endpointValue: -40.3% (active)

====

# maps each entry to its growth
- Tested on: DU-145 prostate
- assayExplanation: NCI-60 one-dose screen, 48 h (100 = growth as untreated, 0 = no growth, -100 = all killed)
- experimentalSetup: 10 µM unless noted
This is part of a sample that, as a whole, favours compounds with a hit. Of some 83,000 tested, about 20% had one in any assay.
measurementLabel: growth (%)

compound: COc1cc(NC(C)CCCNC(C)C)c2ncccc2c1OC (centres undefined)
measurementLabel: growth
endpointValue: 113
--
compound: Cc1nc(N2CCOCC2)sc1S(N)(=O)=O
measurementLabel: growth
endpointValue: 105
--
compound: CN1C(=O)/C(=C/c2cn(-c3ccccc3)nc2-c2ccccc2)SC1=S
measurementLabel: growth
endpointValue: 105
--
compound: O=C(/C=C/c1cn(-c2ccccc2)nc1-c1ccc([N+](=O)[O-])cc1)c1ccc(Cl)cc1
measurementLabel: growth
endpointValue: 20.4
